# Tested on: SK-MEL-28 melanoma
# test: NCI-60 one-dose screen, 48 h (100 = growth as untreated, 0 = no growth, -100 = all killed)
# experimental context: 10 µM unless noted
About 83,000 compounds went through this panel and 20% of them were active in at least one assay; those are over-represented in the sample as a whole. Active and inactive are the calls of the source. How the source made its calls: active means growth percent below 10; inactive means the rest.
observed property: growth

input: Dear colleague, I am looking for the recorded growth of the following compound: CCN1C(=O)N(CC)C2C1NN=c1s/c(=C\c3ccc(F)cc3)c(=O)n12 (stereo unspecified)
output: 63% (inactive)

input: Item under review: Cc1ccc2c(c1)CC(O)CC1C(=O)N(CCO)CC(=O)N21 (stereo unspecified) . Reported growth?
output: 102% (inactive)

input: Which measured growth value corresponds to `CCOC(=O)c1cc(C(=O)c2cc(OC)cc(OC)c2)n2ncccc12` ?
output: 71.2% (inactive)

input: Quick check: growth of `O=C(Nc1ncc(Cc2ccccc2)s1)c1ccc2c(c1)OCCO2` ?
output: 66.3% (inactive)

input: If you can, please state the reported growth value of `COc1ccc(-c2cc(-c3ccc(N(C)C)cc3)nc(NC(=O)c3cccnc3)n2)cc1` .
output: 106% (inactive)

input: So what's the measured growth for this one? `O=C(Nc1ncc(Cc2ccc(Cl)cc2)s1)c1ccc2c(c1)OCCO2`
output: 76.2% (inactive)
